- subject_of_test: T1, recombinant human HER2 extracellular domain protein (human, UniProt P04626 23-652)
- T1 construct: range 23-652; Range is printed for the immunogen/panning protein; also called ErbB2; recombinant HER2 protein
- experimental_details: BLI, Protein A capture
measure: koff

Need koff of Hu2117HK-Mu44 (Fc fusion, name in Kabat numbering, scFv-hIgG1 Fc; not shown: human IgG1 Fc) scFv: EVQLVESGGGLVQPGGSLRLSCAASGFTYSSYGMSWVRQAPGKGLEWVASISGGGSYTKYPDSVKGRFTISRDNSKNTLYLQMNSLRAEDTAVYYCARDYEGFFDVWGQGTLVTVSSGGGGSGGGGSGGGGSDIQMTQSPSSLSASVGDRVTITCRSSQSLVHSNGNTYLHWYQQKPGKAPKLLIYKVSNRFSGVPSRFSGSGSGTDFTLTISSLQPEDFATYFCSQSTHVPYTFGQGTKVEIK , thanks. 0.0034 s⁻¹

Similarly, Hu2117HK-Mu38 (Fc fusion, scFv-hIgG1 Fc; not shown: human IgG1 Fc) scFv: EVQLVESGGGLVQPGGSLRLSCAASGFTYNNYGMSWVRQAPGKGLEWVASISGGGSYTKYPDSVKGRFTISRDNSKNTLYLQMNSLRAEDTAVYYCARDYAGFFDVWGQGTLVTVSSGGGGSGGGGSGGGGSDIQMTQSPSSLSASVGDRVTITCRSSQSLVHSNGNTYLHWYQQKPGKAPKLLIYKVSNRFSGVPSRFSGSGSGTDFTLTISSLQPEDFATYFCSQSTHVPYTFGQGTKVEIK ? 0.00121 s⁻¹
